B1: TIA1 (parent)
chain: TYECRCIGEEKEMWNFGEKYARF

Variants of: B1
ASSAY_NOTES: protein stability index of a GFP-peptide fusion (GPS, HEK-293T) (PSI 1-6); higher = more stable;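 further: lentivirally expressed fusions sorted by FACS into six bins by GFP to DsRed ratio, PSI derived from sequencing read proportions per bin multiplied by bin number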
EXPERIMENTAL_SETUP: c terminus: native
Criterion: protein stability index meeting or surpassing 2. Met: Y. Not met: N.

# bool: protein stability index of E9D >= 2
Y

# bool: protein stability index of N15T >= 2
N

# bool: protein stability index of Y2W >= 2
Y

# bool: protein stability index of I7V >= 2
N

# bool: protein stability index of Y2T >= 2
Y

# bool: protein stability index of G8P >= 2
Y

# bool: protein stability index of E3T >= 2
Y

# bool: protein stability index of K11F >= 2
N

# bool: protein stability index of C6E >= 2
Y

# bool: protein stability index of E9L >= 2
Y

# bool: protein stability index of Y2K >= 2
Y

# bool: protein stability index of K11Q >= 2
N

# bool: protein stability index of E9I >= 2
N

# bool: protein stability index of E18L >= 2
N

# bool: protein stability index of R5I >= 2
Y

# bool: protein stability index of A21V >= 2
Y

# bool: protein stability index of N15E >= 2
Y

# bool: protein stability index of E3A >= 2
Y

# bool: protein stability index of E9K >= 2
Y

# bool: protein stability index of E12V >= 2
N

# bool: protein stability index of K11G >= 2
Y

# bool: protein stability index of R5A >= 2
N

# bool: protein stability index of C6T >= 2
Y

# bool: protein stability index of E12G >= 2
Y

# bool: protein stability index of E12L >= 2
Y

# bool: protein stability index of N15M >= 2
N

# bool: protein stability index of K19C >= 2
N

# bool: protein stability index of F16S >= 2
Y

# bool: protein stability index of Y20W >= 2
Y

# bool: protein stability index of K11R >= 2
N

# bool: protein stability index of E12Y >= 2
N

# bool: protein stability index of N15Q >= 2
N

# bool: protein stability index of E12K >= 2
N

# bool: protein stability index of M13F >= 2
N

# bool: protein stability index of E12D >= 2
N

# bool: protein stability index of Y2S >= 2
Y

# bool: protein stability index of E3Y >= 2
Y

# bool: protein stability index of Y20G >= 2
Y

# bool: protein stability index of E9M >= 2
N

# bool: protein stability index of A21Y >= 2
N

# bool: protein stability index of T1E >= 2
Y

# bool: protein stability index of R22N >= 2
Y

# bool: protein stability index of F23R >= 2
N

# bool: protein stability index of E18D >= 2
Y

# bool: protein stability index of R22C >= 2
N

# bool: protein stability index of E10W >= 2
Y

# bool: protein stability index of G17M >= 2
N

# bool: protein stability index of A21W >= 2
Y

# bool: protein stability index of F23Q >= 2
N

# bool: protein stability index of R22E >= 2
Y

# bool: protein stability index of I7H >= 2
Y

# bool: protein stability index of R22L >= 2
N

# bool: protein stability index of M13L >= 2
Y

# bool: protein stability index of E18M >= 2
N

# bool: protein stability index of G8V >= 2
Y

# bool: protein stability index of Y20F >= 2
Y

# bool: protein stability index of C4I >= 2
Y

# bool: protein stability index of Y2G >= 2
Y

# bool: protein stability index of Y20T >= 2
Y

# bool: protein stability index of K19G >= 2
Y

# bool: protein stability index of K19I >= 2
N

# bool: protein stability index of C6I >= 2
Y

# bool: protein stability index of Y20V >= 2
Y

# bool: protein stability index of I7M >= 2
N

# bool: protein stability index of I7E >= 2
Y

# bool: protein stability index of F23T >= 2
N

# bool: protein stability index of C6G >= 2
Y

# bool: protein stability index of E3R >= 2
N

# bool: protein stability index of G8A >= 2
Y

# bool: protein stability index of R5V >= 2
Y

# bool: protein stability index of G17Q >= 2
Y

# bool: protein stability index of I7P >= 2
Y

Every entry's value here was drawn from the supplement of paper PMC10567573.
